assay: Binding affinity to synthetic biotin-labeled 30-mer AT-rich duplex DNA in pH 7.4 EDTA buffer solution in presence of 0.05 M NaCl at 25 degC by QCM sensogram analysis
MEASURED METRIC: Ka (×10⁵ /M)
Numbers only; they are read as ×10⁵ /M.

Lab note: measured Ka of Cc1c2c[n+](CCOCCN)ccc2c(C)c2c1c1cc(O)ccc1n2C was 102

Lab note: measured Ka of CNC(=O)NCCOCC[n+]1ccc2c(C(=O)OC)c3[nH]c4ccccc4c3c(C)c2c1 was 7.41

Lab note: measured Ka of Cc1c2cc[n+](C)cc2c(C)c2c1[nH]c1ccc(O)cc12 was 35.1

Lab note: measured Ka of Cc1c2c[n+](CCN)ccc2cc2[nH]c3ccccc3c12 was 4.29

Lab note: measured Ka of CNC(=O)NCCCCC[n+]1ccc2c(C)c3c(c(C)c2c1)c1cc(O)ccc1n3C was 15.8

Lab note: measured Ka of Cc1c2cnccc2c(C(=O)NCCCCN)c2[nH]c3ccccc3c12 was 0.279

Lab note: measured Ka of CNC(=O)NCCCCNC(=O)c1c2ccncc2c(C)c2c1[nH]c1ccccc12 was 0.185

Lab note: measured Ka of CNC(=O)NCCOCC[n+]1ccc2c(C)c3[nH]c4ccccc4c3c(C)c2c1 was 3.59

* * *

assay: Cytotoxicity against mouse Sarcoma 180 cells assessed as reduction in cell viability after 72 hrs by MTT assay; assay type: functional, cell-based; details: Sarcoma-180, 72 h
MEASURED METRIC: pIC50
// pIC50 is dimensionless: -log10 of concentration (M)

Lab note: measured pIC50 of COC(=O)c1c2cc[n+](CCOCCN)cc2c(C)c2c1[nH]c1ccccc12.[Cl-] was 5.95

Lab note: measured pIC50 of Cc1c2cc[n+](C)cc2c(C)c2c1[nH]c1ccccc12 was 6.15

Lab note: measured pIC50 of Cc1c2c[n+](CCCCCN)ccc2c(C)c2c1c1cc(O)ccc1n2C.[Cl-] was 5.85

Lab note: measured pIC50 of CNC(=O)NCCOCC[n+]1ccc2c(C)c3c(c(C)c2c1)c1cc(O)ccc1n3C was 5.57

Lab note: measured pIC50 of Cc1c2cc[n+](CCOCCN)cc2c(C)c2c1[nH]c1ccc(O)cc12.[Cl-] was 6.00

Lab note: measured pIC50 of COc1ccc2[nH]c3c(C(=O)NCCN)c4cc[n+](C)cc4c(C)c3c2c1 was 4.24

Lab note: measured pIC50 of CNC(=O)NCCNCCNC(=O)c1c2cc[n+](C)cc2c(C)c2c1[nH]c1ccccc12 was 4.11

* * *

Provide the reported log10 IC50 of each item.
test: Cytotoxicity against mouse Sarcoma 180 cells assessed as reduction in cell viability after 72 hrs by MTT assay; assay type: functional, cell-based; settings: Sarcoma-180, 72 h
All values: base-10 log of IC50 in µM.

Lab note: measured log10 IC50 of Cc1c2c[n+](C)ccc2c(C(=O)NCCCN)c2[nH]c3ccccc3c12 was 1.41

Lab note: measured log10 IC50 of CNC(=O)NCCNC(=O)c1c2ccncc2c(C)c2c1[nH]c1ccccc12 was 1.18

Lab note: measured log10 IC50 of CNC(=O)NCCOCC[n+]1ccc2c(C)c3[nH]c4ccc(O)cc4c3c(C)c2c1.[Cl-] was 0.34

Lab note: measured log10 IC50 of Cc1c2ccncc2c(C)c2c1[nH]c1ccc(O)cc12 was -0.36

Lab note: measured log10 IC50 of Cc1c2cc[n+](CCOCCN)cc2c(C)c2c1[nH]c1ccccc12.[Cl-] was -0.10

Where do the numbers come from? From ChEMBL document CHEMBL3877309.
